Measured pIC50 on α7-subtype of nicotinic receptors (Rattus norvegicus) follows.
Sequence (Q05941 23-502): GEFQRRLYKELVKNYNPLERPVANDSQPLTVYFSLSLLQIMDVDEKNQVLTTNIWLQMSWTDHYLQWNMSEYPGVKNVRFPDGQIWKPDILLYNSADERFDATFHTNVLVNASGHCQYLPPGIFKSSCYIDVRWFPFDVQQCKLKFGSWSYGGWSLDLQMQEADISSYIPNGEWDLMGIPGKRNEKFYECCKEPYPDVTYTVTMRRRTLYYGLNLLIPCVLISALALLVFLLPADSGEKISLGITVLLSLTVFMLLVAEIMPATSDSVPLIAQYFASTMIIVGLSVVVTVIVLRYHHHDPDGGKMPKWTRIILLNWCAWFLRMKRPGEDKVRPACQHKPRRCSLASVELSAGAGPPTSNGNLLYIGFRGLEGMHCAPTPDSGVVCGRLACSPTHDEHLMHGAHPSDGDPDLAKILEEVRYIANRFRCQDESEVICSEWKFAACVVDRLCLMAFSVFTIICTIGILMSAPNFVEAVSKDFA
The scale used: pIC50 is minus the common logarithm of the concentration in molar units.

Field request: pIC50 | item: O=c1c2ccccc2ncn1-c1ccc(N2CCN3CCC2CC3)cc1 [Compound E1]
6.89

Field request: pIC50 | item: O=c1c2ccccc2nnn1-c1ccc(N2CCN3CCC2CC3)cc1 [Compound D1]
7.66
